Consider the following compounds; for each one, report its growth inhibition.
PROTOCOL TEXT: inhibition of 3D7 malaria parasite growth – strain 3D7 (AID 2306);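 further: 0% = DMSO wells and 100% = chloroquine plus artemisinin control wells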
STATED CONDITIONS: P. falciparum 3D7 erythrocytic growth, LDH absorbance, 72 h; at 2 µM; stronger effect = higher value
Kindly provide the numeric value in % only, without the unit symbol.

Entry under test: `NC[C@H](CC1CCCCC1)NC(=O)c1ccc(-c2ccnc3[nH]ccc23)s1` . Its growth inhibition was 98

Per the record, `CS(=O)(=O)Cc1ccc(Nc2ncc(Cl)c(Nc3cccnc3C(N)=O)n2)cc1` has growth inhibition of 97

So, `O=C(Nc1ccc2nc3n(c(=O)c2c1)CCCCC3)C(=O)N1CCC(Cc2ccccc2)CC1` ? Its growth inhibition was 91

For `CC(C)(C)OC(=O)NCC(=O)N(Cc1ccccc1)Cc1ccccc1` the compound record lists growth inhibition as 97

Value of measured growth inhibition for the entry `c1ccc(Oc2ccc(Nc3ccnc(Nc4ccc(OCCN5CCCCC5)cc4)n3)cc2)cc1` : 97

###

For each entry below, report its inhibition value.
SYSTEM NAME: L-lactate dehydrogenase (Plasmodium falciparum (isolate CDC / Honduras))
PROTOCOL TEXT: PfLDH activity inhibition – cell lysate, 3D7 strain, counter-screen for P. falciparum growth inhibition project (AID 2304);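 further: 0% = vehicle and 100% = reference inhibitor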
STATED CONDITIONS: P. falciparum 3D7 crude extract, LDH APAD/NBT absorbance; at 2 µM; stronger effect = higher value
All answers are understood in %, so give the number only.

For record `CCOc1ccc(-c2nonc2NC(=O)c2ccccc2Cl)cc1OCC` the listed inhibition is 4

`O=C(Nc1ccc(N2CCN(Cc3ccccc3)CC2)cc1)c1cccs1` has a reported inhibition of 2

Sample COc1cccc(C(=O)NC(C=Cc2ccccc2)c2cc(Cl)c3cccnc3c2O)c1 (stereo not given) ; inhibition observed: -1

The recorded inhibition for `CS(=O)(=O)Cc1ccc(Nc2ncc(Cl)c(Nc3cccnc3C(N)=O)n2)cc1` is -4

Value of inhibition reported for the compound `O=C(/C=C/c1ccc(CNCCN2CCOCC2)cc1)NCCc1ccccc1` is -2

###

Can you tell me inhibition for the items I'm about to list?
PROTOCOL TEXT: MDA-MB-436 breast carcinoma cell growth inhibition, synergistic combos for chromothripsis tumors, BGB or cisplatin combos (AID 1671458);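 further: cells exposed for 96 hours; 0% = vehicle DMSO and 100% = killing by high DMSO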
STATED CONDITIONS: MDA-MB-436 breast carcinoma growth inhibition, drug combinations; measured here: cisplatin combination; at 5 µM; stronger effect = higher value
Enter your answer as a number in %; do not include the unit.

For `O=c1[nH]c(-c2ccc(C(F)(F)F)cc2)nc2c1CSCC2` the compound record lists inhibition as -5.9

Given item NC(=O)c1ncn(C2OC(CO)C(O)C2O)n1 (configuration not stated) , the value recorded as its inhibition is 6.23

Sample `CC(C)N=c1cc2n(-c3ccc(Cl)cc3)c3ccccc3nc-2cc1Nc1ccc(Cl)cc1` ; inhibition observed: 0.559

inhibition recorded for this compound, `O=c1cc(-c2cccc3c2Sc2ccccc2S3)oc(N2CCOCC2)c1` , is -24.3

The reported inhibition of the compound `O=C(Nc1ccncc1)c1cc([N+](=O)[O-])ccc1Cl` was -23.8

Short answer for `CO[C@H]1/C=C/O[C@@]2(C)Oc3c(C)c(O)c4c(O)c(c(C=NN5CCN(C)CC5)c(O)c4c3C2=O)NC(=O)/C(C)=C\C=C\[C@H](C)[C@H](O)[C@@H](C)[C@@H](O)[C@@H](C)[C@H](OC(C)=O)[C@@H]1C` : inhibition was 4.56

`CCc1c2c(nc3ccc(O)cc13)-c1cc3c(c(=O)n1C2)COC(=O)[C@]3(O)CC` yielded inhibition of 84.4

###

SYSTEM NAME: L-lactate dehydrogenase (Plasmodium falciparum (isolate CDC / Honduras)) (UniProt Q27743)
Sequence (Q27743 whole entry, looked up): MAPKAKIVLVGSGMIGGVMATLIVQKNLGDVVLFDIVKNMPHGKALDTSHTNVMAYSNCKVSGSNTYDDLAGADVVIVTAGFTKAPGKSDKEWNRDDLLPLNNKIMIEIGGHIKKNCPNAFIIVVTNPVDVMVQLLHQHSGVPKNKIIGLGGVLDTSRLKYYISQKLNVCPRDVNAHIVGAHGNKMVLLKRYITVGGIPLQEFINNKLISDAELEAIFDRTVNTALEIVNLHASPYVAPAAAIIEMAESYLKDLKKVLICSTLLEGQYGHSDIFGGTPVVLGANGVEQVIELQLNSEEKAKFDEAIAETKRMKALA
PROTOCOL TEXT: PfLDH activity inhibition – cell lysate, 3D7 strain, counter-screen for P. falciparum growth inhibition project (AID 2304);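 further: 0% = vehicle and 100% = reference inhibitor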
STATED CONDITIONS: P. falciparum 3D7 crude extract, LDH APAD/NBT absorbance; at 2 µM; stronger effect = higher value
Exercise: state measured inhibition for each of the compounds provided.
Value expressed in %; do not type the unit.

CCc1cc(Br)c2c(c1)C(NCCCNc1cc(=O)c3ccccc3[nH]1)CCN2 (stereo not given) has a reported inhibition of -1

Record `Cn1nc(-c2ccc(NC(=O)Nc3ccc4ccccc4c3)c(F)c2)c2cnc(NCCN3CCOCC3)nc21` , field inhibition: 1

# inhibition of `CCN(CC)CCON=Cc1cc(C)c2[nH]c3ccc(OCc4ccccc4)cc3c2c1C` = 1

inhibition for `Cc1cc2c(cc1C(F)(F)F)N(C(=O)Nc1ccc(C(=O)NCCN3CCCC3)cc1)CC2` is 3

Lab note: measured inhibition of CN(C)CCCN1C(=O)c2[nH]nc(-c3ccc(Cl)cc3O)c2C1c1ccc(Cl)cc1 (stereo not given) was 4

###

Tested on: F380Y/beta1
PROTOCOL TEXT: modulators of BK channel variants, profiling panel, selectivity assay, cell-based, U2OS BacMam, thallium flux, beta subunits (AID 1259406);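 further: initial slope of Thallos dye fluorescence rise after thallium is added; log ratio against the mean of 0.3% DMSO vehicle wells on the same plate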
STATED CONDITIONS: at 30 µM
OBSERVATION TYPE: log fold change Tl+ flux
Response field accepts a number only; no unit should be typed.

Let me check: `Cc1cc(C)c2cc(C(=O)Nc3ccccc3SCc3cccc(Cl)c3F)[nH]c2c1` , system F380Y/beta1, measured log fold change Tl+ flux is 0.0143

So the reported log fold change Tl+ flux for CCC[C@@H]1C[C@@H](C(=O)N[C@H]([C@@H](C)O)[C@H]2O[C@H](SC)[C@H](O)[C@@H](O)C2O)N(C)C1 (stereo not given in full) , on F380Y/beta1, turned out to be -0.0324

Fill in: F380Y/beta1 log fold change Tl+ flux for `CC(C)C[C@H](NC(=O)[C@@H](O)[C@H](N)Cc1ccccc1)C(=O)O` = -0.0233

Observed log fold change Tl+ flux, F380Y/beta1, `COc1cc(C(=O)Nc2ccccc2C(=O)NCCc2ccccn2)cc(OC)c1OC` : 0.0128

# lookup: CC(N)(Cc1ccc(O)c(O)c1)C(=O)O (stereo not given) on F380Y/beta1, log fold change Tl+ flux = -0.0706

Entry CC1(C)SC2C(NC(=O)C(N)c3ccccc3)C(=O)N2C1C(=O)O (stereo not given) : log fold change Tl+ flux on F380Y/beta1 = -0.00858

The recorded log fold change Tl+ flux with F380Y/beta1 for `CCOC(=O)c1cnn(C(=O)c2ccc(-n3c(C)ccc3C)cc2)c1N` was -0.0106

Observed log fold change Tl+ flux on F380Y/beta1, entry `Cc1nnc(-c2ccccn2)[nH]c1=O` , equals -0.0365

// assay F380Y/beta1, entry `Cc1c(C(=O)Nc2ccc(N3CCOCC3)c(Cl)c2)cnn1-c1ccc(F)cc1` , log fold change Tl+ flux value = -0.00879

Field log fold change Tl+ flux (system: F380Y/beta1) for entry O=c1[nH]c(=O)n(C2CC(O)C(CO)O2)cc1F (stereo not given) = 0.0394

Item: `Cc1c(Br)sc2sc(-c3ccnc(SCc4ccccc4)n3)c(C)c12` | System: F380Y/beta1 | log fold change Tl+ flux: -0.0227

Reported log fold change Tl+ flux (F380Y/beta1) for entry NCC(O)c1ccc(O)c(O)c1 (stereo not given) is 0.00151

Considering `CCc1[nH]c(=S)[nH]c(=O)c1C#N` , its log fold change Tl+ flux with F380Y/beta1 was recorded as 0.0419

For `CCOC(=O)NN=C(C)C(C)=NNC(=O)OCC` on F380Y/beta1, measured log fold change Tl+ flux was -0.0656

Record `CC(C)(C)OC(=O)N1CCC(c2nc(-c3ccc(Cl)s3)cs2)CC1` / F380Y/beta1, log fold change Tl+ flux recorded as 0.0589

log fold change Tl+ flux on F380Y/beta1 for CN1c2ccccc2C(C)(C)C12C=Cc1cc(Br)cc([N+](=O)[O-])c1O2 (stereo not given) is 0.162

The molecule `CC(C)c1ccc2c(c1)c(SC(C)(C)C)c(CC(C)(C)C(=O)O)n2Cc1ccc(Cl)cc1` on F380Y/beta1: log fold change Tl+ flux was 0.00246

The observed log fold change Tl+ flux for `CC(C)(C)c1ccc(Oc2ccc(NC(=O)Nc3cccs3)cn2)cc1` when tested with F380Y/beta1 stands at 0.131

Tested on F380Y/beta1: `Cc1nc(-c2n[nH]c(=S)n2C)cs1` . Observed log fold change Tl+ flux: -0.0212

The observed log fold change Tl+ flux for `CC(=NO)c1ccc2c(c1)C(C)(C)CCC2(C)C` when tested with F380Y/beta1 stands at -0.197

So the reported log fold change Tl+ flux for `COc1cc(/C=C/c2ccc(O)cc2)cc(OC)c1` , on F380Y/beta1, turned out to be -0.986

With F380Y/beta1 as the test system, `C[C@]12C=CC(=O)C=C1CC[C@@H]1[C@@H]2[C@@H](O)C[C@@]2(C)[C@H]1CC[C@]2(O)C(=O)COC(=O)CCC(=O)O` showed log fold change Tl+ flux of 0.0033

Tested on F380Y/beta1, the item `Cn1c(C(F)(F)F)nnc1S(=O)(=O)Cc1ccc(-c2csnn2)cc1` showed log fold change Tl+ flux equal to 0.0098

Item `O=S(=O)(c1ccc(-c2cc(C(F)(F)F)on2)s1)N1CCc2c([nH]c3ccc(F)cc23)C1` ; assay system F380Y/beta1; log fold change Tl+ flux reported as 0.0471

For the molecule `O=C(Nc1ccc(OC(F)(F)F)cc1)OC1CN(C(c2ccccc2)c2ccccc2)C1` , the measured log fold change Tl+ flux on F380Y/beta1 was -0.0331

Item: COC(=O)C(O)(c1ccc(NC(=O)c2ccc(Cl)c(Cl)c2)cc1)C(F)(F)F (stereo not given) | System: F380Y/beta1 | log fold change Tl+ flux: 0.0948

Fill in: F380Y/beta1 log fold change Tl+ flux for `Cc1cccc(N=Cc2cc(Cl)cc(Cl)c2O)c1C` = 0.0694

log fold change Tl+ flux for F380Y/beta1 with input `O=C(NCc1ccc2c(c1)OCO2)C1CCN(C(=O)OCc2ccccc2)CC1` equals -0.0838

Entry `CSc1nc(C)nc(Sc2cccc(C(F)(F)F)c2)c1C#N` : log fold change Tl+ flux on F380Y/beta1 = 0.0287

Value (log fold change Tl+ flux, F380Y/beta1) for record `Cc1ccccc1C=C1N=C(c2ccccc2)OC1=O` = 0.0199

Bench note, F380Y/beta1: `CCc1cc(C(=O)c2ccc(OC)cc2)c(NC(=O)CN2CCN(C)CC2)s1` , log fold change Tl+ flux reads -0.0083

Record O=C1NC2CC2N1C(=O)OCc1ccccc1 (stereo not given) / F380Y/beta1, log fold change Tl+ flux recorded as -0.00537

Recorded log fold change Tl+ flux for `Clc1ccc(-c2nc(-c3cnccn3)no2)cc1` on F380Y/beta1 was 0.0188

Tested on F380Y/beta1, the item NC(=O)c1ncn(C2OC(CO)C(O)C2O)n1 (stereo not given) showed log fold change Tl+ flux equal to -0.00666

Entry `Cc1noc(C)c1C(=O)Sc1nccc(C(F)(F)F)n1` , F380Y/beta1 data, log fold change Tl+ flux value: 0.00713

Item: CCN(CC)CC#CCOC(=O)C(O)(c1ccccc1)C1CCCCC1 (stereo not given) | System: F380Y/beta1 | log fold change Tl+ flux: -0.0697

Test item `CC(=O)Nc1ccc(OCC(=O)N2CCN(c3ncc(C(F)(F)F)cc3Cl)CC2)cc1` ; F380Y/beta1; reported log fold change Tl+ flux was 0.0214

Noted log fold change Tl+ flux for `C=C1/C(=C\C=C2/CCC[C@]3(C)[C@@H]([C@H](C)CCCC(C)(C)O)CC[C@@H]23)C[C@@H](O)C[C@@H]1O` , tested on F380Y/beta1: 0.0867

Observed log fold change Tl+ flux, F380Y/beta1, `NC(=NC(=O)c1cccs1)c1cccs1` : 0.0573

F380Y/beta1 data for `COC(=O)c1c(S(=O)(=O)N2CCOCC2)c(C)n(C)c1C` ; its log fold change Tl+ flux: 0.0187

// molecule `CSc1nc2cc(Oc3cccc(Cl)c3Cl)c(Cl)cc2[nH]1` , assay F380Y/beta1, log fold change Tl+ flux value: 0.0498

Hey, F380Y/beta1 data for `Cc1ccc(S(=O)(=O)c2ncsc2SCc2ccc(Cl)cc2Cl)cc1` : log fold change Tl+ flux came out at -0.0176

Field log fold change Tl+ flux (F380Y/beta1), entry `N#Cc1cc(-c2ccccc2)oc1NC(=O)c1cccs1` : 0.0261

Here `CS(=O)(=O)C(C#N)=NNc1ccc(OC(F)(F)F)cc1` was tested on F380Y/beta1, and its log fold change Tl+ flux came to 0.148

Lab note: molecule `O=C(NC(=O)c1ccccc1Oc1ccc(Cl)cc1Cl)Nc1cc(Cl)cc(Cl)c1` tested on F380Y/beta1; recorded log fold change Tl+ flux was 0.0216
